For each record, write down the corresponding viability.
Assay: MRP1 drug-resistance reversers in H69AR cells – cell-based, doxorubicin co-treatment, pilot screen (AID 601)
Conditions: H69AR cells + 2 uM doxorubicin, CellTiter-Glo, 72 h; measured here: viability with 2 uM doxorubicin; at 10 µM; stronger effect = lower value
# value in %; strip the unit string

May I ask what viability has been recorded for CCc1c(C)nc(N2CCN(Cc3ccccc3)CC2)[nH]c1=O ?
84.6

May I ask what viability has been recorded for O=C(O)C1C2CCC(O2)C1C(=O)Nc1cccc(F)c1 (stereo unspecified) ?
80.5

May I ask what viability has been recorded for COC(=O)C(F)(F)Sc1c(C)[nH]c2ccccc12 ?
90.6

May I ask what viability has been recorded for CCOC(=O)c1cc2sccc2n1CC(=O)Nc1ccc2c(c1)OCCO2 ?
65.2

May I ask what viability has been recorded for CN(Cc1nc(-c2ccncc2)no1)S(=O)(=O)c1ccc(Br)cc1 ?
93.9

May I ask what viability has been recorded for CCOC(=O)c1sc(NC(=O)CSc2nc3c(cc2C#N)CCC3)c(C#N)c1C ?
99.5

Origin of the recorded values: PubChem BioAssay
